Tested on: cultured human mast cells (CHMC)
Assay: CHMC low cell density IgE activation: tryptase assay
Assay type: cell-based
Conditions: Homo sapiens, Mast cell, low cell density CHMC, IgE activation, tryptase release, 3 point; read-out: LD Tryptase, CHMC, IgE, 3 pt
# IC50 per entry

Worked cases, IC50 given:
MOLECULE SMILES: COc1cc(Nc2ncc(F)c(N(C)c3ccc(OC(C)C)nc3)n2)cc(OC)c1
QUANTITY NAME: IC50
EXPERIMENTAL VALUE: < 10 µM
//
MOLECULE SMILES: COc1cc(Nc2ncc(F)c(N(C)c3cc(C)c(Cl)c(C)c3)n2)cc(OC)c1
QUANTITY NAME: IC50
EXPERIMENTAL VALUE: < 10 µM
//
MOLECULE SMILES: COc1cc(Nc2ncc(F)c(N(C)c3ccc(OC)c(Cl)c3)n2)cc(OC)c1
QUANTITY NAME: IC50
EXPERIMENTAL VALUE: < 10 µM

Data point: `COc1ccc(N(C)c2nc(Cl)ncc2F)cc1Cl` ; IC50 = > 10 µM

Data point: `CC(C)Oc1ccc(N(C)c2nc(Cl)ncc2F)cn1` ; IC50 = > 10 µM

Data point: `CN(c1ccc(Cl)c(C(F)(F)F)c1)c1nc(Cl)ncc1F` ; IC50 = > 10 µM

Data point: `COc1cc(N(C)c2nc(Nc3cc(C)cc(C)c3)ncc2F)ccc1Cl` ; IC50 = < 10 µM

Data point: `COc1ccc(Nc2nc(Cl)ncc2F)cc1Cl` ; IC50 = > 10 µM

Data point: `Cc1cc(N(C)c2nc(Cl)ncc2F)cc(C)c1Cl` ; IC50 = > 10 µM

====

System: cultured human mast cells (CHMC)
Assay: CHMC low cell density IgE activation: tryptase assay
Type: cell-based
Settings: Homo sapiens, Mast cell, low cell density CHMC, IgE activation, tryptase release, 3 point; read-out: LD Tryptase, CHMC, IgE, 3 pt
pIC50: −log10 of the molar value.
QUANTITY NAME: pIC50

Data point: COC(=O)c1cc2cc(Nc3ncc(F)c(N(C)c4cc(C)c(Cl)c(C)c4)n3)ccc2o1 [Compound 595] ; pIC50 = < 5.00

====

Test system: cultured human mast cells (CHMC)
Test: CHMC low cell density IgE activation: tryptase assay
Assay type: cell-based
Conditions: Homo sapiens, Mast cell, low cell density, IgE activation, 3 pt; read-out: LD Tryptase, CHMC, IgE, 3 pt
pIC50: −log10 of the molar value.
# pIC50 per entry

Worked cases, pIC50 given:
MOLECULE: COc1ccc(Nc2nc(Nc3ccc4c(c3)nc(C)n4CCO)ncc2F)cc1Cl [Compound 900]
STUDY SYSTEM: cultured human mast cells (CHMC)
EXPERIMENTAL VALUE: > 5.00

MOLECULE: CC(=O)NCCCn1c(C)nc2cc(Nc3ncc(F)c(Nc4ccc5c(c4)NC(=O)C(C)(C)O5)n3)ccc21 [Compound 952]
STUDY SYSTEM: cultured human mast cells (CHMC)
EXPERIMENTAL VALUE: > 5.00

MOLECULE: CNC(=O)c1ccc(Nc2ncc(F)c(Nc3cccc(O)c3)n2)cc1Cl [Compound 468]
STUDY SYSTEM: cultured human mast cells (CHMC)
EXPERIMENTAL VALUE: > 5.00

MOLECULE: COc1ccc(Nc2nc(Nc3ccc4[nH]c(C(F)(F)F)nc4c3)ncc2F)nc1Cl [Compound 883]
STUDY SYSTEM: cultured human mast cells (CHMC)
EXPERIMENTAL VALUE: > 5.00

MOLECULE: CNC(=O)c1cc(Nc2nc(Nc3cc(OC)cc(OC)c3)ncc2F)ccc1Cl [Compound 475]
STUDY SYSTEM: cultured human mast cells (CHMC)
EXPERIMENTAL VALUE: > 5.00

Could you now look at the following molecule, please?
Data point: COc1ccc(Nc2nc(Nc3ccc4c(cnn4CCCNC(=O)C4CC4)c3)ncc2F)nc1Cl [Compound 891] ; pIC50 = > 5.00

meta.source: patent US20220073536A1
